Target: TGFBR2 (Homo sapiens, UniProt P37173)
Sequence (P37173 23-567): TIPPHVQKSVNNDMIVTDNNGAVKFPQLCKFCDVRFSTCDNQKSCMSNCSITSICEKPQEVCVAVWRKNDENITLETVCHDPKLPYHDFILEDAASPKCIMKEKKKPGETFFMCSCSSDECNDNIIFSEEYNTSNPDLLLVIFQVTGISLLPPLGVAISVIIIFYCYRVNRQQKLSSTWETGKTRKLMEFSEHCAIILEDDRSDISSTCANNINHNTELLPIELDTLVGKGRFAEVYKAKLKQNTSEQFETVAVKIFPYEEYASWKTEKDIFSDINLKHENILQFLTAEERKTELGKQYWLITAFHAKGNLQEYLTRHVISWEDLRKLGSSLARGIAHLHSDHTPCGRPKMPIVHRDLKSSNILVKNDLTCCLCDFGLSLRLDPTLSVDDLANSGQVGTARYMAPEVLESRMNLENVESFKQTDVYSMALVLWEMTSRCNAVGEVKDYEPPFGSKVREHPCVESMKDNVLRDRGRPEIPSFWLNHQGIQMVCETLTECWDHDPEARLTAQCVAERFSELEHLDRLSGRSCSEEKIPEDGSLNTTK
Test: TGFBR2 RBC enzyme assay (Reaction Biology Corp.)
Experimental: Compounds of the disclosure were assayed by Reaction Biology Corp. using the TGFBR2 RBC enzyme assay.
parameter_measured: EC50

CN1CCCOc2cc(OCCCN)cc(c2)-c2cnc(N)c(n2)C(=O)Nc2cnccc21 | 0.001 to 0.1 µM
CN1CCCOc2cc(OCCCN3C(=O)c4ccccc4C3=O)cc(c2)-c2cnc(N)c(n2)C(=O)Nc2cnccc21 | 0.001 to 0.1 µM
Nc1ncc2nc1C(=O)Nc1cnccc1O[C@H]1CC[C@H](CC1)Oc1cccc-2c1 | > 1 µM

Now let's try a different one.
Prompt: Report EC50 for CN1C[C@H](CN)Oc2ccccc2-c2cnc(N)c(n2)C(=O)Nc2cnccc21
Completion: > 1 µM

----------
Molecular target: TGFBR2 (Homo sapiens, UniProt P37173)
Assay: TGFBR2 RBC enzyme assay (Reaction Biology Corp.)
pEC50: −log10 of the molar value.
Below is a list of entries, each paired with its recorded pEC50 value.

Worked cases, pEC50 given:
Nc1ncc2nc1C(=O)Nc1cnccc1O[C@@H]1CN[C@@H](COc3cccc-2c3)C1 (racemic) [Compound 36] | < 6.00
CN1C[C@@H](CN)Oc2ccccc2-c2cnc(N)c(n2)C(=O)Nc2cnccc21 [Compound 60] | < 6.00
CN1CCCOc2cc(ccc2OCCCN)-c2cnc(N)c(n2)C(=O)Nc2cnccc21 [Compound 61] | 7.00 to 9.00
CC1OCCN(C)c2ccncc2NC(=O)c2nc(cnc2N)-c2cccc1c2 (centres unmarked) [Compound 20] | 7.00 to 9.00
CN1CCN(C)c2ccncc2NC(=O)c2nc(cnc2N)-c2ccc(OCCCN)c(c2)C1=O [Compound 56] | 7.00 to 9.00

Prompt: In one line, give reported pEC50 of the entry CCN1CCCOc2cccc(c2)-c2cnc(N)c(n2)C(=O)Nc2cnccc21 [Compound 13] .
Completion: 6.00 to 7.00

Prompt: Consider the compound CN1CCNC(=O)c2cccc(c2)-c2cnc(N)c(n2)C(=O)Nc2cnccc21 [Compound 30] and give its recorded pEC50.
Completion: < 6.00

Prompt: Give me measured pEC50, please, for this compound: CC(C)(C)OC(=O)N1C[C@H]2C[C@H]1COc1ccncc1NC(=O)c1nc(cnc1N)-c1cccc(c1)O2 (racemic) [Compound 39]
Completion: < 6.00

Prompt: Check the records and state pEC50 for Nc1ncc2nc1C(=O)Nc1cnccc1SCCCOc1ccc(Br)c-2c1 [Compound 51]
Completion: 7.00 to 9.00

Prompt: Identify measured pEC50 associated with CN1CCCCOc2ccccc2-c2cnc(N)c(n2)C(=O)Nc2cnccc21 [Compound 34]
Completion: 6.00 to 7.00

Prompt: Give the reported pEC50 for this compound. Nc1ncc2nc1C(=O)Nc1cnccc1O[C@@H]1CN[C@H](COc3cccc-2c3)C1 (racemic) [Compound 38]
Completion: 7.00 to 9.00

Prompt: Return the recorded pEC50 value; entry: CN1CCOc2ccc(OCCCN)cc2-c2cnc(N)c(n2)C(=O)Nc2cnccc21 [Compound 64]
Completion: 7.00 to 9.00

Prompt: Name the recorded pEC50 of the item Nc1ncc2nc1C(=O)Nc1cnccc1OCCOc1ccc(Br)c-2c1 [Compound 49] in your answer.
Completion: 7.00 to 9.00

Prompt: Check the records and state pEC50 for Nc1ncc2nc1C(=O)Nc1cnccc1OC[C@@H]1C[C@@H](CN1)Oc1cccc-2c1 (racemic) [Compound 42]
Completion: 6.00 to 7.00
